Values were extracted from patent US20130029942A1.

Tested on: P388 murine leukemia cell line
Test: P388 cytotoxicity (ATP-Lite, 72 hours)
Type: cell-based
Conditions: Mus musculus, P388, 72 hours
Readings of IC50 for the listed compounds
quantityMeasured: IC50 (nM)

>>> numericvalue("COc1ccc(N(C)c2nc(C(C)(C)C#N)nc3ccccc23)cc1")
37
>>> numericvalue("COc1ccc(N(C)c2nncc3ccc(F)cc23)cc1")
1500
>>> numericvalue("CONc1nc(N(C)c2ccc(OC)cc2)c2ccccc2n1")
2
>>> numericvalue("COc1ccc(N(C)c2nc(NCCO)nc3c2CCCC3)cc1")
20
>>> numericvalue("COC(=O)COc1ccc(N(C)c2nc(C)nc3ccccc23)cc1")
2200
>>> numericvalue("COc1ccc(N(C)c2nc(CN)nc3ccc(N)cc23)cc1")
170
>>> numericvalue("COc1ccc(N(C)c2nc(CN)nc3ccccc23)cc1F")
11
>>> numericvalue("CCOc1ccc(N(C)c2nc(CCl)nc3ccccc23)cc1Cl")
15
>>> numericvalue("COc1ccc(N(C)c2nc(CNC(C)=O)nc3ccccc23)cc1")
19
>>> numericvalue("CCOc1ccc(N(C)c2nc(CN)nc3cccc(F)c23)c(F)c1")
22

---

System: T-47D cells
Test: Caspase cascade activation / induction of apoptosis in T-47D cells (fluorogenic N-(Ac-DEVD)-N'-ethoxycarbonyl-R110 substrate)
Format: cell-based, human
Conditions: Homo sapiens, T47D; T-47D, 24 hr; read-out: T-47D (24 hr) EC50
pEC50: −log10 of the molar value.
Readings of pEC50 for the listed molecules
quantityMeasured: pEC50

>>> numericvalue("CN(c1ccc([N+](=O)[O-])cc1)c1nc(Cl)nc2ccccc12")
6.06
>>> numericvalue("COc1ccc(N(C)c2nc(C)nc3ccccc23)cc1F")
8.70
>>> numericvalue("COc1ccc(N(C)c2nc(C)nc3cc(N=[N+]=[N-])ccc23)cc1")
6.89
>>> numericvalue("Cc1ccc(N(C)c2ncnc3ccccc23)cc1")
6.85
>>> numericvalue("COc1ccc(N(C)c2ccnc3ccccc23)cc1")
7.74
>>> numericvalue("COc1ccc(N(C)c2nc(Cl)nc3cccc(Cl)c23)cc1")
8.70
>>> numericvalue("Cc1nc(N(C)c2ccc(N(C)C)cc2)c2ccccc2n1")
8.70
>>> numericvalue("COc1ccc(N(C)c2nc(CCl)nc3ccccc23)cc1")
6.17
>>> numericvalue("COc1ccc(N(C)c2nc(Cl)nc3cc(OC)c(OC)cc23)cc1")
6.79
>>> numericvalue("CNc1nc(N(C)c2ccc(OC)nc2)c2ccccc2n1")
7.57
>>> numericvalue("Cc1nc(N(C)c2ccc(N)cc2)c2ccccc2n1")
6.76
>>> numericvalue("Cc1nc(N(C)c2c(Br)cc(N)cc2Br)c2ccccc2n1")
6.26
>>> numericvalue("COc1ccc(N(C)c2nc(N3CCOCC3)nc3ccccc23)cc1")
7.25
>>> numericvalue("COc1cccc(N(C)c2nc(Cl)nc3ccccc23)c1OC")
6.16
>>> numericvalue("Cc1ccc(N(C)c2nc(Cl)nc3ccccc23)cc1")
7.51
>>> numericvalue("COc1ccc(N(C)c2nc(NCCc3c[nH]cn3)nc3ccccc23)cc1")
5.66

---

Biological target: tubulin (Bos taurus, UniProt P81947+Q6B856)
Sequence (P81947 whole entry): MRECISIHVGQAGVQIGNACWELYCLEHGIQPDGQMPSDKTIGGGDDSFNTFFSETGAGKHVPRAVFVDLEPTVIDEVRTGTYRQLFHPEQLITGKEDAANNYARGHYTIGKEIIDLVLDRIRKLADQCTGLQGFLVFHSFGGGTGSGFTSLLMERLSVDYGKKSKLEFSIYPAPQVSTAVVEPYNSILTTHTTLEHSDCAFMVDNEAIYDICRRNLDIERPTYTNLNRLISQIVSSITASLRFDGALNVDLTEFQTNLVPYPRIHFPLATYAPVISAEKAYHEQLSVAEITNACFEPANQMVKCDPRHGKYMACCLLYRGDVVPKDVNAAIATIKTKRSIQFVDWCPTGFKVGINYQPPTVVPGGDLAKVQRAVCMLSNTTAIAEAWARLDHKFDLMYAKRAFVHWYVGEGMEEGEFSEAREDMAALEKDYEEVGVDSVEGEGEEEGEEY
Sequence (Q6B856 whole entry): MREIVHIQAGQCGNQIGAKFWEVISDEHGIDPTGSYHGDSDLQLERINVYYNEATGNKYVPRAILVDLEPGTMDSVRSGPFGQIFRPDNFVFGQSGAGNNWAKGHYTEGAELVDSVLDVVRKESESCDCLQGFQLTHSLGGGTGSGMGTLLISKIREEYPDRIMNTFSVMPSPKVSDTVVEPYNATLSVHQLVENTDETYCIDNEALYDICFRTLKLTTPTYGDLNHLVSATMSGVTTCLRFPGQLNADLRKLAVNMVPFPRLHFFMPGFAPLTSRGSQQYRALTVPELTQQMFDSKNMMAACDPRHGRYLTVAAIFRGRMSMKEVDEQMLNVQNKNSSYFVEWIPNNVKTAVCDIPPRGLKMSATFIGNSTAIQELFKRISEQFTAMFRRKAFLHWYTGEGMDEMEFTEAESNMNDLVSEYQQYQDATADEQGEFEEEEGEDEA
Test: Inhibition of tubulin polymerization (DAPI fluorescence)
Conditions: MAP-rich tubulin, 30 minutes at 37° C.
Structures can show the parent of a compound that is named as a salt.
Response field label: string, one of label 1 (IC50 strictly below 6 µM) or label 0.

>>> grouplabel("COc1ccc(N(C)c2nc(Cl)nc3cc(OC)c(OC)cc23)cc1 [Example 20]")
"label 1"
>>> grouplabel("COc1ccc(OC)c(Nc2nc(Cl)nc3ccccc23)c1 [Example 31]")
"label 0"
>>> grouplabel("CN(c1ccccc1)c1nc(Cl)nc2ccccc12 [Example 6]")
"label 1"
>>> grouplabel("COc1cccc(N(C)c2nc(Cl)nc3ccccc23)c1 [Example 43]")
"label 1"
>>> grouplabel("Cc1ccc(N(C)c2nc(Cl)nc3ccccc23)cc1 [Example 2]")
"label 1"
>>> grouplabel("COc1ccc(N(C)c2nccc3ccccc23)cc1 [Example 65]")
"label 0"
>>> grouplabel("COc1ccc(N(C)c2ncnc3c2CCCC3)cc1 [Example 25]")
"label 1"
>>> grouplabel("COc1ccc(N(C)c2nc(C)nc3ccccc23)cc1 [Example 72, hydrochloride]")
"label 1"
>>> grouplabel("COc1ccc(N(C)c2nc(Cl)nc3ccccc23)c(OC)c1 [Example 41]")
"label 1"
>>> grouplabel("COc1ccc(OC)c(N(C)c2nc(Cl)nc3ccccc23)c1 [Example 42]")
"label 1"
>>> grouplabel("Cc1ccc(N(C)c2ncnc3ccccc23)cc1 [Example 35]")
"label 1"
>>> grouplabel("COc1ccc(N(C)c2nc(Cl)nc3ccccc23)cn1 [Example 36]")
"label 1"
>>> grouplabel("COc1ccc(N(C)c2ncnc3ccccc23)cc1 [Example 34]")
"label 1"
>>> grouplabel("COc1ccc(N(C)c2nc(Cl)nc3ccccc23)cc1 [Example 1]")
"label 1"
>>> grouplabel("COc1ccccc1N(C)c1nc(Cl)nc2ccccc12 [Example 44]")
"label 0"
>>> grouplabel("COc1ccc(Nc2nc(Cl)nc3ccccc23)cc1 [Example 7]")
"label 0"
